Tested On: Prothrombin (Homo sapiens, UniProt P00734)
Observable: IC50 (µM)
Numbers only, in µM.

Query string: I have this molecule here, N=C(N)NCCC[C@@H](CO)NC(=O)[C@@H]1CCCN1C(=O)[C@@H](Cc1ccc(O)cc1)NC(=O)C(O)CCc1ccc(O)cc1 (stereo partly specified) , and I need its recorded IC50.
Result string: 250

---

Tested On: Carboxypeptidase A1 (Bos taurus)
Sequence (P00730 whole entry): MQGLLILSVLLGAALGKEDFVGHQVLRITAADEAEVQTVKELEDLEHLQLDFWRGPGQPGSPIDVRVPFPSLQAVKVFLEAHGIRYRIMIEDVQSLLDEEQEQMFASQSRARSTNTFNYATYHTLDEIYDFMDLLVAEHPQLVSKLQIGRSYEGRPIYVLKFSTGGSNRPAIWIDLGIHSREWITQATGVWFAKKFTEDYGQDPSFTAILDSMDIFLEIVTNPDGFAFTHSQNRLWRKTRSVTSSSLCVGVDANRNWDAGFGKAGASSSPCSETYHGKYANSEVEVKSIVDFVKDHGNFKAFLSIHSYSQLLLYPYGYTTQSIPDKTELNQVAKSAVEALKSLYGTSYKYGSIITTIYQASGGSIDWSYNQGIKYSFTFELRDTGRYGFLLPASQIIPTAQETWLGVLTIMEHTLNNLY
Observable: IC50

Query string: Fill in the recorded IC50 for this compound, with Carboxypeptidase A1 (Bos taurus) as test system: "CC[C@@H](C)[C@H](NC(=O)N[C@@H]1CCCCNC(=O)[C@H](CCc2ccc(O)cc2)NC(=O)[C@H](C(C)C)NC1=O)C(=O)O"
Result string: 2 µM
